# measured target: SMYD3 (Homo sapiens (Human), UniProt Q9H7B4)
# method: SMYD3 biochemical assay (SPA, 3H-SAM methylation of MEKK2 protein substrate)
# measurement parameters: read-out: SMYD3 Biochem IC50 (μM)*
The following compounds are shown together with reported IC50 values.

| mol smiles | IC50 |
| --- | --- |
| CC(=O)Nc1ccc(S(=O)(=O)N2CC[C@@H](NC(=O)c3cc(C4CC4)on3)C[C@H]2C)cc1 | > 10 µM |
| C[C@@H]1CN(C(=O)CCCN)CC[C@H]1NC(=O)c1cc(C2CC2)on1 | > 10 µM |
| CNc1ccc(S(=O)(=O)N2CC[C@H](NC(=O)c3cc(C4CC4)on3)C[C@H]2C)cn1 | > 10 µM |
